Target: hERG potassium channel (Homo sapiens)
Sequence (Q12809 whole entry): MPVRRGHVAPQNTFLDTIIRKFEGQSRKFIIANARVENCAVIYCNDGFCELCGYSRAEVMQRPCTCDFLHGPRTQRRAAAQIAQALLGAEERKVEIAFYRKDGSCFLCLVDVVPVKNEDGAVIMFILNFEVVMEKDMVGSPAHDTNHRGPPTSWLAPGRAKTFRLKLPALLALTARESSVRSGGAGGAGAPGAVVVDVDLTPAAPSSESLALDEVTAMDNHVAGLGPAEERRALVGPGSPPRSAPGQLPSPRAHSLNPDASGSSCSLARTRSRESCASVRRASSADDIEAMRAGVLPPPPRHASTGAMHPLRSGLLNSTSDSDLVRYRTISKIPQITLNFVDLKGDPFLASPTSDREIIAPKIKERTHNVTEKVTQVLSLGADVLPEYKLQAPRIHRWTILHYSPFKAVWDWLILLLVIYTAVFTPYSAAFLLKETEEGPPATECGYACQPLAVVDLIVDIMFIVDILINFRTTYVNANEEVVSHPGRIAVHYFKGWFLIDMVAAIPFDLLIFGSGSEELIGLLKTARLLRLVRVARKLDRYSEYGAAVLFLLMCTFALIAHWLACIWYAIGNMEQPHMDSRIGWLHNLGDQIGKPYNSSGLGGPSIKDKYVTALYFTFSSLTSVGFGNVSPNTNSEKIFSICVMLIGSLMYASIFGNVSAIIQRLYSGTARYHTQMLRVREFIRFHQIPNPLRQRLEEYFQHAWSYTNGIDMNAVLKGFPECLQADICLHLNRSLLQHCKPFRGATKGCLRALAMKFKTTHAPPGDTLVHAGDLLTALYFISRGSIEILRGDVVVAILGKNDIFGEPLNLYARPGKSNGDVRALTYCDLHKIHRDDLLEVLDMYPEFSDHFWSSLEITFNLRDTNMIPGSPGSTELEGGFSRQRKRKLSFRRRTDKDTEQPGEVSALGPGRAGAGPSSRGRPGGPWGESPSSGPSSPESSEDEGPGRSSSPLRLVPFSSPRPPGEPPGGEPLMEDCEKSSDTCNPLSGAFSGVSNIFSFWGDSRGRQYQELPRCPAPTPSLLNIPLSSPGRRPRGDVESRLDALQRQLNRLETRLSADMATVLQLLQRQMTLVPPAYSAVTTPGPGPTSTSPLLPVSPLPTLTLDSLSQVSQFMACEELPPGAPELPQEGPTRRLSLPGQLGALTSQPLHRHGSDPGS
Test: hERG screening assay (PatchXpress patch clamp, CHO cell line)
Settings: 10 μM
Listed compounds paired with reported hERG Patch Clamp hERG % blk
// return numeric value only (unit: %, not printed)

>>> df
                                   compound                endpoint_name  result
0  CCOC(=O)C1=C(C)Nc2nnnn2C1c1csc2ccccc12 (stereo not drawn) [PT-017]  hERG Patch Clamp hERG % blk    23.5
1  CCOC(=O)C1=C(C)Nc2nc(C#N)c(C#N)n2C1c1cccc2ccccc12 (stereo not drawn) [PT-194]  hERG Patch Clamp hERG % blk    91.0
2  CC1=C(C(=O)OC(C)C)C(c2ccc3ccccc3c2)C2=C(CCCC2=O)N1 (stereo not drawn) [PT-157]  hERG Patch Clamp hERG % blk    37.1
3  CCOC(=O)C1=C(C)Nc2[nH]nc(C)c2C1c1cccc2ccccc12 (stereo not drawn) [PT-074]  hERG Patch Clamp hERG % blk    43.0
4  CC1=C(C(=O)OCc2ccccc2)C(c2cccs2)n2nnnc2N1 (stereo not drawn) [PT-040]  hERG Patch Clamp hERG % blk    24.5

Exam item: Send back hERG potassium channel (Homo sapiens) hERG Patch Clamp hERG % blk of CCOC(=O)C1=C(C)NC(C)=C(C(=O)OCC)C1c1ccc2ccccc2c1 [PT-107] only.
Marked response: 48.0

Exam item: Write down measured hERG Patch Clamp hERG % blk (hERG potassium channel (Homo sapiens)) for this compound. COC(=O)c1ccc(-c2n[nH]c3c2C(c2cccc4ccccc24)C2=C(COC2=O)N3)cc1 (stereo not drawn) [PT-085]
Marked response: 44.5

Exam item: Please respond with reported hERG Patch Clamp hERG % blk (system hERG potassium channel (Homo sapiens)) for CCOC(=O)C1=C(CC)NC(CC)=C(C(=O)OCC)C1c1ccc(Br)s1 [PT-181] .
Marked response: 73.0

Exam item: Give hERG Patch Clamp hERG % blk for this entry on hERG potassium channel (Homo sapiens): CC1=C(C(=O)OCc2ccccc2)C(c2ccccc2-c2ccc(NS(C)(=O)=O)cc2)c2cn[nH]c2N1 (stereo not drawn) [PT-366]
Marked response: 92.0

Exam item: State the measured hERG Patch Clamp hERG % blk (hERG potassium channel (Homo sapiens)) of CC1=C(C(=O)OC(C)C)C(c2cccc3ccccc23)C(C(=O)OC(C)C)=C(C)N1 [PT-123]
Marked response: 30.5

Exam item: State hERG Patch Clamp hERG % blk (hERG potassium channel (Homo sapiens)) of CC1=C(C(=O)O[C@@H](C)c2ccccc2)C(c2cc3ccccc3o2)n2nnnc2N1 (stereo partly drawn) [PT-059] .
Marked response: 66.5

Exam item: Name the value of hERG Patch Clamp hERG % blk reported for CC1=C(C(=O)OCc2ccccc2)C(c2csc3ccccc23)n2nnnc2N1 (stereo not drawn) [PT-042] when tested on hERG potassium channel (Homo sapiens).
Marked response: 52.5

Exam item: Return reported hERG Patch Clamp hERG % blk for target or system hERG potassium channel (Homo sapiens), item CCOC(=O)C1=C(C)NC(C)=C(C(=O)OCC)C1c1ccccc1Br [PT-430] .
Marked response: 21.5

Exam item: Return reported hERG Patch Clamp hERG % blk for target or system hERG potassium channel (Homo sapiens), item CCOC(=O)C1=C(C)NC2=C(C(=O)CCC2)C1c1cccc2ncccc12 (stereo not drawn) [PT-140] .
Marked response: 34.5

Exam item: Fill in: hERG Patch Clamp hERG % blk on hERG potassium channel (Homo sapiens), entry CC1=C(C(=O)OCc2ccccc2)C(c2ccccc2-c2ccccc2)n2nnnc2N1 (stereo not drawn) [PT-025]
Marked response: 53.0

Exam item: # return hERG Patch Clamp hERG % blk of CCCC1=C(C(=O)OCC)C(c2ccsc2)C2=C(CC(c3ccccc3)CC2=O)N1 (stereo not drawn) [PT-149] (system: hERG potassium channel (Homo sapiens))
Marked response: 67.0

Exam item: With hERG potassium channel (Homo sapiens) as the test system, provide measured hERG Patch Clamp hERG % blk for this compound: CC1=C(C(=O)OCc2ccccc2)C(c2sc3ccccc3c2C)n2nnnc2N1 (stereo not drawn) [PT-044]
Marked response: 40.0

Exam item: Supply hERG Patch Clamp hERG % blk measured with hERG potassium channel (Homo sapiens) for CC1=C(C(=O)OCc2ccccc2)C(c2cccc3ccccc23)n2nnnc2N1 (stereo not drawn) [PT-027] .
Marked response: 64.5

Exam item: # return hERG Patch Clamp hERG % blk for CCOC(=O)C1=C(C)Nc2nccn2C1c1ccc2ccccc2c1 (stereo not drawn) [PT-086] , test system: hERG potassium channel (Homo sapiens)
Marked response: 57.5
